Below, each entry is listed alongside its reported MCV.
assay: In vivo toxicological study in rats: haematology; parameters: species or system rats of the Wistar strain; conditions: male, 100 mg/kg oral daily 7 d
test-readout: MCV (fL)

N#Cc1c(NC(=O)c2cccc3ccccc23)sc2c1CCN(C(=O)Nc1ccccc1OC(F)(F)F)C2 [PKL-A159] | 56.4
COc1ccccc1NC(=O)N1CCc2c(sc(NC(=O)c3cccc4ccccc34)c2C#N)C1 [PKL-A152] | 58.8
N#Cc1c(NC(=O)c2cccc3ccccc23)sc2c1CCN(CC(=O)Nc1cccc(Br)c1)C2 [PKL-B171] | 57.1
COc1ccc(C(=O)Nc2sc3c(c2C#N)CCCCC3)cc1OC [PKL-A135] | 58.1

====

target: JNK3 (Homo sapiens, UniProt P53779); construct: purchased Thermo Fisher PV4563; experiment: JNK enzyme activity assay, purified JNK3; format: biochemical; conditions: 10 μM; greatest inhibition was obtained for JNK3
Sequence (P53779 whole entry): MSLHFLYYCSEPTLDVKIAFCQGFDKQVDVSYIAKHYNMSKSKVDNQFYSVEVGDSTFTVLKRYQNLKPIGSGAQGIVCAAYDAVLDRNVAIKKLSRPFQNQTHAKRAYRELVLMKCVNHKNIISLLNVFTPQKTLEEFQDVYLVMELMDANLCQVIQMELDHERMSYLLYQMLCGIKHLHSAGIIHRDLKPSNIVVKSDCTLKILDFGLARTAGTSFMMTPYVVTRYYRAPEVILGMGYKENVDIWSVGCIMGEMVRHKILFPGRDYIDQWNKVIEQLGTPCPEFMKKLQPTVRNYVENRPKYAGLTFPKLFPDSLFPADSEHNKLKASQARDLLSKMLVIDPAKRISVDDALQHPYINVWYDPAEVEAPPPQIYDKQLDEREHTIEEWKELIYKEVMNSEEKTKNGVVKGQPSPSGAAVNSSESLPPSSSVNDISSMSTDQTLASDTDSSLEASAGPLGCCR
test-readout: JNK3 activity

N#Cc1c(NC(=O)c2cccc3ccccc23)sc2c1CCN(C(=O)Nc1ccccc1F)C2 [PKL-A119] | inhibited
COc1ccc(C(=O)N2CCc3c(sc(NC(=O)c4cccc5ccccc45)c3C#N)C2)cc1OC [PKL-A132] | inhibited
CN(C)C(=O)N1CCc2c(sc(NC(=O)c3cccc4ccccc34)c2C#N)C1 [PKL-A117] | inhibited
CC(C)(C)OC(=O)N1CCc2c(sc(NC(=O)c3cccc4ccccc34)c2C#N)C1 [PKL-A131] | inhibited

====

assay: In vivo toxicological study in rats: haematology; design: species or system rats of the Wistar strain; settings: male, 100 mg/kg oral daily 7 d
Below, each entry is listed alongside its reported MONO.
test-readout: MONO

COc1ccccc1NC(=O)N1CCc2c(sc(NC(=O)c3cccc4ccccc34)c2C#N)C1 | 0.17 10^9/l
N#Cc1c(NC(=O)c2cccc3ccccc23)sc2c1CCN(C(=O)Nc1ccccc1OC(F)(F)F)C2 | 0.23 10^9/l
COc1ccc(C(=O)Nc2sc3c(c2C#N)CCCCC3)cc1OC | 0.17 10^9/l
N#Cc1c(NC(=O)c2cccc3ccccc23)sc2c1CCN(CC(=O)Nc1cccc(Br)c1)C2 | 0.17 10^9/l

====

test: In vivo toxicological study in rats: haematology; design: species or system rats of the Wistar strain; conditions: male, 100 mg/kg oral daily 7 d
test-readout: LYM

COc1ccc(C(=O)Nc2sc3c(c2C#N)CCCCC3)cc1OC | 6.1 10^9/l
N#Cc1c(NC(=O)c2cccc3ccccc23)sc2c1CCN(C(=O)Nc1ccccc1OC(F)(F)F)C2 | 7.1 10^9/l
N#Cc1c(NC(=O)c2cccc3ccccc23)sc2c1CCN(CC(=O)Nc1cccc(Br)c1)C2 | 6.6 10^9/l
COc1ccccc1NC(=O)N1CCc2c(sc(NC(=O)c3cccc4ccccc34)c2C#N)C1 | 6.9 10^9/l

====

experiment: In vivo toxicological study in rats: haematology; set-up: species or system rats of the Wistar strain; details: female, 300 mg/kg oral daily 7 d
Below, each entry is listed alongside its reported RBC.
test-readout: RBC

COc1ccccc1NC(=O)N1CCc2c(sc(NC(=O)c3cccc4ccccc34)c2C#N)C1 | 7.43 10^12/l
N#Cc1c(NC(=O)c2cccc3ccccc23)sc2c1CCN(C(=O)Nc1ccccc1OC(F)(F)F)C2 | 7.45 10^12/l
COc1ccc(C(=O)Nc2sc3c(c2C#N)CCCCC3)cc1OC | 7.04 10^12/l
N#Cc1c(NC(=O)c2cccc3ccccc23)sc2c1CCN(CC(=O)Nc1cccc(Br)c1)C2 | 7.55 10^12/l

====

experiment: In vivo toxicological study in rats: haematology; design: species or system rats of the Wistar strain; conditions: male, 100 mg/kg oral daily 7 d
Below, each entry is listed alongside its reported PLT.
test-readout: PLT

COc1ccc(C(=O)Nc2sc3c(c2C#N)CCCCC3)cc1OC | 815 10^9/l
N#Cc1c(NC(=O)c2cccc3ccccc23)sc2c1CCN(C(=O)Nc1ccccc1OC(F)(F)F)C2 | 974 10^9/l
N#Cc1c(NC(=O)c2cccc3ccccc23)sc2c1CCN(CC(=O)Nc1cccc(Br)c1)C2 | 981 10^9/l
COc1ccccc1NC(=O)N1CCc2c(sc(NC(=O)c3cccc4ccccc34)c2C#N)C1 | 990 10^9/l

====

Below, each entry is listed alongside its reported WBC.
assay: In vivo toxicological study in rats: haematology; set-up: species or system rats of the Wistar strain; settings: female, 300 mg/kg oral daily 7 d
test-readout: WBC

COc1ccc(C(=O)Nc2sc3c(c2C#N)CCCCC3)cc1OC | 6.4 10^9/l
COc1ccccc1NC(=O)N1CCc2c(sc(NC(=O)c3cccc4ccccc34)c2C#N)C1 | 6.0 10^9/l
N#Cc1c(NC(=O)c2cccc3ccccc23)sc2c1CCN(CC(=O)Nc1cccc(Br)c1)C2 | 7.1 10^9/l
N#Cc1c(NC(=O)c2cccc3ccccc23)sc2c1CCN(C(=O)Nc1ccccc1OC(F)(F)F)C2 | 6.4 10^9/l

====

test: In vivo toxicological study in rats: haematology; parameters: species or system rats of the Wistar strain; settings: female, 300 mg/kg oral daily 7 d
Below, each entry is listed alongside its reported MCH.
test-readout: MCH (pg)

N#Cc1c(NC(=O)c2cccc3ccccc23)sc2c1CCN(CC(=O)Nc1cccc(Br)c1)C2 | 19.1
N#Cc1c(NC(=O)c2cccc3ccccc23)sc2c1CCN(C(=O)Nc1ccccc1OC(F)(F)F)C2 | 19.4
COc1ccc(C(=O)Nc2sc3c(c2C#N)CCCCC3)cc1OC | 20.8
COc1ccccc1NC(=O)N1CCc2c(sc(NC(=O)c3cccc4ccccc34)c2C#N)C1 | 19.7

====

assay: In vivo toxicological study in rats: haematology; design: species or system rats of the Wistar strain; details: female, 30 mg/kg oral daily 7 d
test-readout: WBC

COc1ccc(C(=O)Nc2sc3c(c2C#N)CCCCC3)cc1OC [PKL-A135] | 6.6 10^9/l
COc1ccccc1NC(=O)N1CCc2c(sc(NC(=O)c3cccc4ccccc34)c2C#N)C1 [PKL-A152] | 6.8 10^9/l
N#Cc1c(NC(=O)c2cccc3ccccc23)sc2c1CCN(C(=O)Nc1ccccc1OC(F)(F)F)C2 [PKL-A159] | 5.9 10^9/l
N#Cc1c(NC(=O)c2cccc3ccccc23)sc2c1CCN(CC(=O)Nc1cccc(Br)c1)C2 [PKL-B171] | 5.5 10^9/l

====

assay: In vivo toxicological study in rats: haematology; set-up: species or system rats of the Wistar strain; conditions: male, 30 mg/kg oral daily 7 d
test-readout: RBC

COc1ccccc1NC(=O)N1CCc2c(sc(NC(=O)c3cccc4ccccc34)c2C#N)C1 | 7.97 10^12/l
COc1ccc(C(=O)Nc2sc3c(c2C#N)CCCCC3)cc1OC | 7.62 10^12/l
N#Cc1c(NC(=O)c2cccc3ccccc23)sc2c1CCN(C(=O)Nc1ccccc1OC(F)(F)F)C2 | 7.26 10^12/l
N#Cc1c(NC(=O)c2cccc3ccccc23)sc2c1CCN(CC(=O)Nc1cccc(Br)c1)C2 | 7.31 10^12/l

====

assay: In vivo toxicological study in rats: haematology; design: species or system rats of the Wistar strain; settings: female, 30 mg/kg oral daily 7 d
Below, each entry is listed alongside its reported RDW %.
test-readout: RDW % (%)

N#Cc1c(NC(=O)c2cccc3ccccc23)sc2c1CCN(C(=O)Nc1ccccc1OC(F)(F)F)C2 | 14.1
COc1ccc(C(=O)Nc2sc3c(c2C#N)CCCCC3)cc1OC | 14.2
N#Cc1c(NC(=O)c2cccc3ccccc23)sc2c1CCN(CC(=O)Nc1cccc(Br)c1)C2 | 14.6
COc1ccccc1NC(=O)N1CCc2c(sc(NC(=O)c3cccc4ccccc34)c2C#N)C1 | 13.9

====

assay: In vivo toxicological study in rats: haematology; parameters: species or system rats of the Wistar strain; conditions: female, 100 mg/kg oral daily 7 d
test-readout: WBC

N#Cc1c(NC(=O)c2cccc3ccccc23)sc2c1CCN(CC(=O)Nc1cccc(Br)c1)C2 [PKL-B171] | 5.2 10^9/l
COc1ccc(C(=O)Nc2sc3c(c2C#N)CCCCC3)cc1OC [PKL-A135] | 8.3 10^9/l
N#Cc1c(NC(=O)c2cccc3ccccc23)sc2c1CCN(C(=O)Nc1ccccc1OC(F)(F)F)C2 [PKL-A159] | 6.7 10^9/l
COc1ccccc1NC(=O)N1CCc2c(sc(NC(=O)c3cccc4ccccc34)c2C#N)C1 [PKL-A152] | 7.1 10^9/l

====

assay: In vivo toxicological study in rats: haematology; design: species or system rats of the Wistar strain; details: male, 100 mg/kg oral daily 7 d
Below, each entry is listed alongside its reported WBC.
test-readout: WBC

COc1ccccc1NC(=O)N1CCc2c(sc(NC(=O)c3cccc4ccccc34)c2C#N)C1 | 8.5 10^9/l
COc1ccc(C(=O)Nc2sc3c(c2C#N)CCCCC3)cc1OC | 7.4 10^9/l
N#Cc1c(NC(=O)c2cccc3ccccc23)sc2c1CCN(C(=O)Nc1ccccc1OC(F)(F)F)C2 | 8.7 10^9/l
N#Cc1c(NC(=O)c2cccc3ccccc23)sc2c1CCN(CC(=O)Nc1cccc(Br)c1)C2 | 8.1 10^9/l
